Every entry's value here was drawn from patent US20090209494A1.

- System: DU145
- ASSAY_NAME: in vitro anticancer activity in combination with compound 14, modified propidium iodide assay
- Type: cell-based, human
- REPORTED_CONDITIONS: combined with 14 at 160 nM
ATTRIBUTE_MEASURED: IC70 of standard agent (ng/mL)
I only need the number, in ng/mL, no unit after it.

Record excerpt, results attached:
{"columns": ["MOLECULE", "DATA_VALUE"],
 "data": [
  ["O=NN(CCCl)C(=O)NC1CCCCC1", 1630],
  ["CC[C@]1(O)C[C@@H]2CN(CCc3c([nH]c4ccccc34)[C@@](C(=O)OC)(c3cc4c(cc3OC)N(C)[C@H]3[C@@](O)(C(N)=O)[C@H](O)[C@]5(CC)C=CCN6CC[C@]43[C@@H]65)C2)C1", 0.1],
  ["O=C1c2c(O)ccc(O)c2C(=O)c2c(NCCNCCO)ccc(NCCNCCO)c21", 110]
]}

Query string: Which IC70 of standard agent reading was recorded for the molecule O=P1(NCCCl)OCCCN1CCCl (stereo not shown) ?
Result string: 17320

---

- MEASURED_ON: Yeast Hsp90 (Saccharomyces cerevisiae, UniProt P02829)
- Sequence (P02829 whole entry): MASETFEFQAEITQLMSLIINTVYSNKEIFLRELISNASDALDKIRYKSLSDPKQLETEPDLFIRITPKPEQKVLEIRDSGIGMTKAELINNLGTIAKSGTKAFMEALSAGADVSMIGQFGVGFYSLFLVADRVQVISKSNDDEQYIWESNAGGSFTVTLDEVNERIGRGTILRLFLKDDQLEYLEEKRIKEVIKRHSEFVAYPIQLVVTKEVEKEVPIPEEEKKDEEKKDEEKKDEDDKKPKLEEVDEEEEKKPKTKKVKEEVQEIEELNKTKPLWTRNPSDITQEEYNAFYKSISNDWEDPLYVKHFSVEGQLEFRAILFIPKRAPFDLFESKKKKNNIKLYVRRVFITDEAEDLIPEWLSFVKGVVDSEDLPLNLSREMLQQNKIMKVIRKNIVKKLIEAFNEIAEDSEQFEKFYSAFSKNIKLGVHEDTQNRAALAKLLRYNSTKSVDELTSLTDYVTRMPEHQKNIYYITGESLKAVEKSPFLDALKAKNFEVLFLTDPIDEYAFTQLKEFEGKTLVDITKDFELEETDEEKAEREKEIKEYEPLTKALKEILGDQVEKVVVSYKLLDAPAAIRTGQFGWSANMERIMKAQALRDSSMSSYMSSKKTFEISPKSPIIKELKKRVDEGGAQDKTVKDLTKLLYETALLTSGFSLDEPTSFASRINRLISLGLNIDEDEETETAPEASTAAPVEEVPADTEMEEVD
- ASSAY_NAME: Hsp90 binding, isothermal titration calorimetry
ATTRIBUTE_MEASURED: pKd
Remember the convention: pKd equals -log10 of concentration in molar.

Query string: Which pKd reading was recorded for the compound CO[C@H]1[C@@H](OC)C[C@H](C)[C@@H](OC)C2=CC(=O)C=C(NC(=O)/C(C)=C/C=C\[C@H](C)[C@@H](OC(N)=O)/C(C)=C/[C@@H]1C)C2=O ?
Result string: 6.62

---

- ASSAY_NAME: Solubility assay
- Format: physicochemical
- REPORTED_CONDITIONS: aqueous buffer, kinetic from dmso stock; 2% DMSO in PBS pH 7.3; shaken up to six hours; maximum measurable 0.5 mM
ATTRIBUTE_MEASURED: solubility

{"columns": ["MOLECULE", "solubility"],
 "data": [
  ["COC1=C2C[C@@H](C)C[C@H](OC)[C@H](O)[C@@H](C)/C=C(\\C)[C@H](OC(N)=O)[C@@H](OC)/C=C\\C=C(/C)C(=O)NC(=CC1=O)C2=O [Geldanamycin, geldanamycin]", "1.7 µM"],
  ["CO[C@H]1C[C@H](C)Cc2cc(O)cc(c2)NC(=O)/C(C)=C/CC[C@H](C)[C@@H](OC(N)=O)/C(C)=C/[C@H](C)[C@H]1O [Compound 14, 7-O-carbamoylpre-macbecin]", "≥ 500 µM"],
  ["CO[C@H]1[C@@H](OC)C[C@H](C)[C@@H](OC)c2cc(O)cc(c2O)NC(=O)/C(C)=C/C=C\\[C@H](C)[C@@H](OC(N)=O)/C(C)=C/[C@@H]1C [18,21-dihydromacbecin]", "136 µM"],
  ["CO[C@H]1C[C@H](C)[C@@H](O)c2cc(O)cc(c2)NC(=O)/C(C)=C/CC[C@H](C)[C@@H](OC(N)=O)/C(C)=C/[C@H](C)[C@H]1O [Compound 15, 7-O-carbamoyl-15-hydroxypre-macbecin]", "≥ 500 µM"]
]}

Query string: Which solubility reading was recorded for the molecule CO[C@H]1[C@@H](OC)C[C@H](C)[C@@H](OC)C2=CC(=O)C=C(NC(=O)/C(C)=C/C=C\[C@H](C)[C@@H](OC(N)=O)/C(C)=C/[C@@H]1C)C2=O [macbecin] ?
Result string: 81 µM
